Listing: normalized growth of selected compounds
experiment: chemical genetic growth profiling, strain panel (AID 1159580);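 further: tested at 20 µM; growth read once vehicle control cultures reached saturation at 30 °C; 1 = growth at the plate median or of vehicle wells; lower values mean less growth of the strain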; details: S. cerevisiae deletion strains, growth OD, locus YDR502C, strain sam2, active compounds read low
About 2,000 (36%) of roughly 5,500 compounds were called active. Roughly 18% stayed inconclusive and do not appear here. The list shows a part of the results.
In your answer, state the number alone without any accompanying words.

Worked cases, normalized growth given:
[[record]]
compound = "NCCCCCC(=O)O"
measure = "normalized growth"
result_number = 1

[[record]]
compound = "CC(=O)O[C@@H]1CC2C(C)(C)C(=O)C3OC3[C@]2(C)C2CC[C@@]3(C)[C@H](c4ccoc4)OC(=O)C4OC43[C@@]21C (stereo not given in full)"
measure = "normalized growth"
result_number = 0.992

[[record]]
compound = "CC(=O)OC1CC(OC(C)=O)C2(C)C(CC(OC(C)=O)C3(C)C2CCC2(C)C(c4ccoc4)OC(=O)C4OC423)C1(C)C (stereo not given)"
measure = "normalized growth"
result_number = 1

[[record]]
compound = "CC(=O)O[C@@H]1CC2C(C)(C)[C@@H](O)CC[C@]2(C)C2CC[C@@]3(C)[C@H](c4ccoc4)OC(=O)[C@H]4O[C@]43[C@@]21C (stereo not given in full)"
measure = "normalized growth"
result_number = 1

[[record]]
compound = "CC(=O)O[C@@H]1CC2C(C)(C)[C@H](O)CC[C@]2(C)C2CC[C@@]3(C)[C@H](c4ccoc4)OC(=O)[C@H]4O[C@]43[C@@]21C (stereo not given in full)"
measure = "normalized growth"
result_number = 1.02

[[record]]
compound = "CN1CCC[C@@H]1CCO[C@](C)(c1ccccc1)c1ccc(Cl)cc1"
measure = "normalized growth"
result_number = 0.97

[[record]]
compound = "Cc1cc(/C=C/c2ccc3cc(N(C)C)ccc3[n+]2C)c(C)n1-c1ccccc1"
measure = "normalized growth"
result_number = 0.943

[[record]]
compound = "NC1(C(=O)O)CCC1"
measure = "normalized growth"
result_number = 0.936


Query CC(=O)OC1CC(O)C(C)(C)C2CC(=O)C3(C)C(CCC4(C)C(c5ccoc5)OC(=O)C5OC543)C12C (stereo not given) yields normalized growth of 0.991

Query CC(C)=CC1C(C(=O)OCc2cccc(Oc3ccccc3)c2)C1(C)C (stereo not given) yields normalized growth of 0.992

Query CC1(C)C(=O)[C@@H]2O[C@@H]2[C@@]2(C)C1C[C@@H](O)[C@]1(C)C2CC[C@@]2(C)[C@H](c3ccoc3)OC(=O)C3OC321 (stereo not given in full) yields normalized growth of 0.957

----------
assay: chemical genetic growth profiling, strain panel (AID 1159580); conditions: S. cerevisiae deletion strains, growth OD, locus YLR403W, strain SFP1, active compounds read low
About 2,000 (36%) of roughly 5,500 compounds were called active. Not shown: some 18% with an inconclusive outcome. This is one part of the list.
Measure: normalized growth
In your answer, state the number alone without any accompanying words.

Query O=S(=O)(NCc1cc(Cl)cc(Cl)c1)c1cc(C(F)(F)F)cc(C(F)(F)F)c1 yields normalized growth of 0.939

----------
Listing: normalized growth of selected compounds
assay: chemical genetic growth profiling, strain panel (AID 1159580);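 further: tested at 20 µM; growth read once vehicle control cultures reached saturation at 30 °C; 1 = growth at the plate median or of vehicle wells; lower values mean less growth of the strain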; settings: S. cerevisiae deletion strains, growth OD, locus YOR184W, strain ser1, active compounds read low
Among all 5,500 compounds or so, about 2,000 (36%) were called active. About 18% were inconclusive and are not listed. This is one part of the list.
In your answer, state the number alone without any accompanying words.

Worked cases, normalized growth given:
[[record]]
compound = "CN=C(N)NCCCC(N)C(=O)O (stereo unspecified)"
measure = "normalized growth"
result_number = 1.07

[[record]]
compound = "CC(=O)OC1CC(O)C(C)(C)C2CC(=O)C3(C)C(CCC4(C)C(c5ccoc5)OC(=O)C5OC543)C12C (stereo unspecified)"
measure = "normalized growth"
result_number = 0.982

[[record]]
compound = "C[C@]12CCC3c4ccc(O)cc4CCC3C1CCC2=O (stereo partly specified)"
measure = "normalized growth"
result_number = 0.714

[[record]]
compound = "CC(=O)O[C@@H]1CC2C(C)(C)[C@@H](O)CC[C@]2(C)C2CC[C@@]3(C)[C@H](c4ccoc4)OC(=O)[C@H]4O[C@]43[C@@]21C (stereo partly specified)"
measure = "normalized growth"
result_number = 0.949


Query CC(=O)O[C@@H]1CC2C(C)(C)[C@H](O)CC[C@]2(C)C2CC[C@@]3(C)[C@H](c4ccoc4)OC(=O)[C@H]4O[C@]43[C@@]21C (stereo partly specified) yields normalized growth of 0.993

Query CC1(C)C(=O)[C@@H]2O[C@@H]2[C@@]2(C)C1C[C@@H](O)[C@]1(C)C2CC[C@@]2(C)[C@H](c3ccoc3)OC(=O)C3OC321 (stereo partly specified) yields normalized growth of 0.978

Query C[C@]12CCC3c4ccc(OC(=O)c5ccccc5)cc4CCC3C1CCC2=O (stereo partly specified) yields normalized growth of 0.975

Query CC(=O)O[C@H]1CC[C@@]2(C)C(C[C@@H](OC(C)=O)[C@]3(C)C2CC[C@@]2(C)[C@H](c4ccoc4)OC(=O)[C@H]4O[C@]423)C1(C)C (stereo partly specified) yields normalized growth of 1

Query FC(F)(F)c1cccc(N2CCNCC2)c1 yields normalized growth of 1.03

Query O=C1CCCCC/C=C/CCCCCCCCO1 yields normalized growth of 0.955

Query NC1(C(=O)O)CCCC1 yields normalized growth of 0.996

----------
assay: chemical genetic growth profiling, strain panel (AID 1159580);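 further: tested at 20 µM; growth read once vehicle control cultures reached saturation at 30 °C; 1 = growth at the plate median or of vehicle wells; lower values mean less growth of the strain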; conditions: S. cerevisiae deletion strains, growth OD, locus YDR001C, strain nth1, active compounds read low
Out of some 5,500 compounds screened, about 2,000 (36%) were called active. About 18% were inconclusive and are not listed. The list shows a part of the results.
Measure: normalized growth
In your answer, state the number alone without any accompanying words.

Worked cases, normalized growth given:
[[record]]
molecule = "CC(=O)O[C@H]1C[C@@H](OC(C)=O)C(C)(C)C2C[C@@H](OC(C)=O)[C@]3(C)C(CC[C@@]4(C)[C@H](c5ccoc5)OC(=O)[C@H]5O[C@]543)[C@]21C (some centres undefined)"
result_number = 0.976

[[record]]
molecule = "CC(=O)O[C@@H]1CC2C(C)(C)[C@@H](O)CC[C@]2(C)C2CC[C@@]3(C)[C@H](c4ccoc4)OC(=O)[C@H]4O[C@]43[C@@]21C (some centres undefined)"
result_number = 0.996

[[record]]
molecule = "NC(=O)NC1NC(=O)NC1=O (centres undefined)"
result_number = 1.01


Please examine the following record next.
Query CC(=O)O[C@@H]1CC2C(C)(C)[C@H](O)CC[C@]2(C)C2CC[C@@]3(C)[C@H](c4ccoc4)OC(=O)C4OC43[C@@]21C (some centres undefined) yields normalized growth of 1.01

----------
experiment: chemical genetic growth profiling, strain panel (AID 1159580);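 further: tested at 20 µM; growth read once vehicle control cultures reached saturation at 30 °C; 1 = growth at the plate median or of vehicle wells; lower values mean less growth of the strain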; details: S. cerevisiae deletion strains, growth OD, locus YDR318W, strain mcm21, active compounds read low
Out of some 5,500 compounds screened, about 2,000 (36%) were called active. Another 18% or so got no clear call; they are omitted. The list shows a part of the results.
Listing: normalized growth of selected molecules

[[record]]
molecule = "CC(=O)OC1CC(O)C(C)(C)C2CC(=O)C3(C)C(CCC4(C)C(c5ccoc5)OC(=O)C5OC543)C12C (stereo not drawn)"
measure = "normalized growth"
result = "1.01 (inactive)"

[[record]]
molecule = "CN=C(N)NCCCC(N)C(=O)O (stereo not drawn)"
measure = "normalized growth"
result = "1.04 (inactive)"

[[record]]
molecule = "COP(=S)(OC)Oc1ccc([N+](=O)[O-])cc1"
measure = "normalized growth"
result = "0.98 (inactive)"

[[record]]
molecule = "O=C(O)C(O)C(O)C(=O)O (stereo not drawn)"
measure = "normalized growth"
result = "0.999 (inactive)"

[[record]]
molecule = "Oc1c(Cl)cc(Cl)c(Cl)c1Cc1c(O)c(Cl)cc(Cl)c1Cl"
measure = "normalized growth"
result = "0.0637 (active)"


Query Clc1ccc(C(c2ccccc2Cl)C(Cl)Cl)cc1 (stereo not drawn) yields normalized growth of 0.985 (inactive)

Query O=C(O)C(O)C(O)C(O)C(O)C(=O)O (stereo not drawn) yields normalized growth of 1 (inactive)

Query COC(=O)[C@@H]1OC(=O)C2OC23[C@@]1(C)CCC1[C@@]2(C)CCC(=O)C(C)(C)C2C[C@@H](OC(C)=O)[C@]13C (stereo partly drawn) yields normalized growth of 1.02 (inactive)

Query NCC[C@@H](O)C(=O)N[C@@H]1C[C@H](N)[C@@H](O[C@H]2O[C@H](CN)[C@@H](O)[C@H](O)[C@H]2O)[C@H](O)[C@H]1O[C@H]1O[C@H](CO)[C@@H](O)[C@H](N)C1O (stereo partly drawn) yields normalized growth of 1.01 (inactive)

Query C1N2CN3CN1CN(C2)C3 yields normalized growth of 0.98 (inactive)

Query C[C@@H]1CC[C@H]2C(C)(C)C3CC12CC[C@@]3(C)O (stereo partly drawn) yields normalized growth of 0.95 (inactive)

Query O=c1oc2ccccc2cc1O yields normalized growth of 0.995 (inactive)

Query CC(C)c1nc(N(C)S(C)(=O)=O)nc(-c2ccc(F)cc2)c1/C=C/[C@@H](O)C[C@@H](O)CC(=O)O yields normalized growth of 1.01 (inactive)

Query CCN1C[C@@]2(COC)C3[C@@H](OC)[C@H]4[C@@H]1[C@]3(C(OC)C[C@H]2O)C1C[C@@]2(O)[C@H](OC(=O)c3ccccc3)C1[C@]4(OC(C)=O)[C@@H](O)[C@@H]2OC (stereo partly drawn) yields normalized growth of 1.03 (inactive)

Query COC(=O)/C(C)=C\CC12OC(C)(C)C3CC(C=C4C(=O)c5c(OC)c6c(c(CC=C(C)C)c5OC431)OC(C)(CCC=C(C)C)C=C6)C2=O (stereo not drawn) yields normalized growth of 0.982 (inactive)
